tested on: HCT-116; assay: NCI tumour cell line growth inhibition, 48 h
Calls of active or inactive are those of the source. Rule as the data show it: active = GI50 up to about 1.1 µM and inactive = higher.
recorded-endpoint: GI50

Field: example entries. Status: answers known.
compound: O=C(C1OC1c1cccc([N+](=O)[O-])c1)C12CC3CC(CC(C3)C1)C2 (stereo not given)
GI50: 2.14 µM (inactive)
--
compound: CCN(CC)CCNc1nc(N)c(C#N)c(C#N)c1C#N
GI50: > 10 µM (inactive)
--
compound: O=C(CC1C(=O)Nc2ccccc2S1(=O)=O)Nc1cccc(Cl)c1 (stereo not given)
GI50: 18.2 µM (inactive)
--
compound: CCCOC(=O)C1CCC(=O)N1C(=O)C(C)Cl (stereo not given)
GI50: > 100 µM (inactive)

The compound COc1cc(/C=C2\CC3C4CC[C@H]5C[C@@H](O)CC[C@]5(C)C4CC[C@]3(C)\C2=N\O)cc(OC)c1OC (stereo not given in full) , tested on HCT-116, showed GI50 of 6.19 µM (inactive)

// compound `COc1cc(/C=C/C(=O)CC(=O)/C=C/c2cc(C)c(O)c(OC)c2)cc(C)c1O` , assay HCT-116, GI50 value: 58.3 µM (inactive)

Item: `COc1ccc(CNc2cnc3cc(N)ccc3n2)cc1OC` | System: HCT-116 | GI50: > 100 µM (inactive)

Test item CC(=O)NC1C(OCc2ccccc2)OC(CO)C(O)C1OCC(=O)NC(C)C(=O)NC(CCC(=O)NCCCCCC(=O)Nc1ccc2c(c1)CN1C(=O)c3ccccc3C1=N2)C(N)=O (stereo not given) ; HCT-116; reported GI50 was 39.6 µM (inactive)

Summary: `CC(C)(C)C#COC(=O)c1ccccc1` , HCT-116, GI50 = > 100 µM (inactive)

Given the compound `O=S1(=O)CS(=O)(=O)OCCCCCO1` and test system HCT-116, the measured GI50 is > 100 µM (inactive)
